Give measured glycan array binding signal (z-score) for each item. Keep answers brief.
- measured target: GalNAc4S6S(b1-4)GlcNAc
- method notes: glycan array binding signal (z-score within array); higher = stronger binding
- condition context: glycan notation: IUPAC condensed, linker removed
The sample as a whole holds a higher share of the strongest signals than the screen did.
Respond with the number and no other words.

# return recorded glycan array binding signal (z-score) for entry his-Lectin-24A (Drosophila melanogaster) (protein) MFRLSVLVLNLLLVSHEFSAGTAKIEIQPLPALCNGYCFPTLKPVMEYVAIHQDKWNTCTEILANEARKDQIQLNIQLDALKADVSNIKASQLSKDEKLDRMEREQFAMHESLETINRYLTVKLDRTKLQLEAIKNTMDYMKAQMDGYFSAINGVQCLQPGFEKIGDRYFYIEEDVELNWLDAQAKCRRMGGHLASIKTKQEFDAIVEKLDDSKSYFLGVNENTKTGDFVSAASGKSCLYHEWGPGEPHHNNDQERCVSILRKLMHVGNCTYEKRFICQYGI
6.71

# return recorded glycan array binding signal (z-score) for entry TAL6-4LysM (Trichoderma atroviride) (protein) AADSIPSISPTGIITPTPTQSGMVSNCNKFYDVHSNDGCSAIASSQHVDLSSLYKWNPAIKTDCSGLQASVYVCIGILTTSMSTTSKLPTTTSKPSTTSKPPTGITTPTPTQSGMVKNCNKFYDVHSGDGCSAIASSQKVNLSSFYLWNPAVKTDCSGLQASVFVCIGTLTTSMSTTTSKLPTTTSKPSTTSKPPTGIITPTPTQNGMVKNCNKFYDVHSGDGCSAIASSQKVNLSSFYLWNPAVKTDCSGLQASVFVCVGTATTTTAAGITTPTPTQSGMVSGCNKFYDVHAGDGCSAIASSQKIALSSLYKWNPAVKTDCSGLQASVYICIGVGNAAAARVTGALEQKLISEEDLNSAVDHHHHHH
1.16

# return recorded glycan array binding signal (z-score) for entry ArathEULS3 (Arabidopsis thaliana), Q945P1 (protein) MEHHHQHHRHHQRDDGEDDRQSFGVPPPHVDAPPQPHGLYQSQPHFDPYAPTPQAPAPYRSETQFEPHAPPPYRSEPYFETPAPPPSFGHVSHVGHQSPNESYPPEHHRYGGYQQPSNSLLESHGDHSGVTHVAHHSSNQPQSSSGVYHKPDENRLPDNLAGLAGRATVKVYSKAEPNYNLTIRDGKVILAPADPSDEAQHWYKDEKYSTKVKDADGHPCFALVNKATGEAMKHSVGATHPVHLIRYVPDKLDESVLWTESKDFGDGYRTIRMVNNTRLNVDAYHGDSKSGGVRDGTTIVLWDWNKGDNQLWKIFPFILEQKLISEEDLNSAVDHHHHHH
-0.105

# return recorded glycan array binding signal (z-score) for entry EUL D1A first (Oryza sativa) (protein) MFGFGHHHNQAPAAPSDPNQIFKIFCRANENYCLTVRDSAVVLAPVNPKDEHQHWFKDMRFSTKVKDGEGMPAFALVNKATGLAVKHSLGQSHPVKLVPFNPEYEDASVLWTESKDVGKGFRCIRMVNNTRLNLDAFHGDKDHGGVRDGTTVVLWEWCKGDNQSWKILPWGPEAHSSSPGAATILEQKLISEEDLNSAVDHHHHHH
0.534

# return recorded glycan array binding signal (z-score) for entry CC1G-11630 (Coprinopsis cinerea), A8P462 (protein) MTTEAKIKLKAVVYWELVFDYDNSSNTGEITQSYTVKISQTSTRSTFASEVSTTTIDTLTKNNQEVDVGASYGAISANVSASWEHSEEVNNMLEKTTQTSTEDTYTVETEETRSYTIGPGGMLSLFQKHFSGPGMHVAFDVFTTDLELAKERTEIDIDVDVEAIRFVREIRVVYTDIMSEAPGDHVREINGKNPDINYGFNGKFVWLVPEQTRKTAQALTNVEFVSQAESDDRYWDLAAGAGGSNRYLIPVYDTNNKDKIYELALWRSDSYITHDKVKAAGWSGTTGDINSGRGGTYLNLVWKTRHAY
0.25

# return recorded glycan array binding signal (z-score) for entry AT1G15820(2) (Arabidopsis thaliana), Q9LMQ2 (protein) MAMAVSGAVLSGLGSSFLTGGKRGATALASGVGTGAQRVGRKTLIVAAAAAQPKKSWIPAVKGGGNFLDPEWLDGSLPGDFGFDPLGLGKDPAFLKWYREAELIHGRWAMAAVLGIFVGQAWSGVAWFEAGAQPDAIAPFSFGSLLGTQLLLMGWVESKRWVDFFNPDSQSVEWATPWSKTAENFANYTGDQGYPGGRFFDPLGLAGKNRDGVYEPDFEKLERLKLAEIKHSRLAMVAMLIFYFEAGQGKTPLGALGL
-0.032

# return recorded glycan array binding signal (z-score) for entry PhypaEULS3 (Physcomitrella patens) (protein) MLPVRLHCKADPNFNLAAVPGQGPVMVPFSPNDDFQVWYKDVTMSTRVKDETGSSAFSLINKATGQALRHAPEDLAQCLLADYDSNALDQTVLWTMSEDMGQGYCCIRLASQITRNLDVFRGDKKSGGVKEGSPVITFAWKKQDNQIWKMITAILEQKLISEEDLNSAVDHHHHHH
2.6
